System: U2OS
MEASUREMENT DESCRIPTION: Multiplex assay against U2OS
Type: toxicity, cell-based
PARTICULARS: human, 12 h, 1 µM, compound concentration 1 uM, replicate 2
RECORDED METRIC: Population Mitotic Cells (%)
Report the figure in % without appending any unit label.

# example entries with known answers
{"COMPOUND": "N#Cc1c(N)nc(SCc2csc(-c3ccc(Cl)cc3)n2)c(C#N)c1-c1ccc(OCCO)cc1", "MEASUREMENT UNIT": "%", "Population Mitotic Cells (%)": 20}
{"COMPOUND": "CSCC[C@H](NC=O)C(=O)N[C@@H](CC(C)C)C(=O)N[C@@H](Cc1ccccc1)C(=O)O", "MEASUREMENT UNIT": "%", "Population Mitotic Cells (%)": 0}

Report Population Mitotic Cells (%) under test system U2OS for Cc1ccccc1C(=O)Nc1ccc(C(=O)N2CCCC(N(C)C)c3ccccc32)cc1.Cl (stereo not drawn) .
22

Report Population Mitotic Cells (%) under test system U2OS for CCCN1CCC[C@@H]2Cc3n[nH]cc3C[C@H]21.Cl [QUINPIROLE HYDROCHLORIDE] .
38

Report Population Mitotic Cells (%) under test system U2OS for "CCCC(CCC)C(=O)O" .
33

Report Population Mitotic Cells (%) under test system U2OS for "COc1cc(C(=O)N(CCCc2ccccc2)Cc2ccc(CC(=O)O)cc2)cc(OC)c1C" .
30

Report Population Mitotic Cells (%) under test system U2OS for "Oc1c(CN2CCN(c3ccccn3)CC2)cc(Cl)c2cccnc12" .
0

Report Population Mitotic Cells (%) under test system U2OS for "N[C@@]1(C(=O)O)CO[C@H]2[C@H](C(=O)O)[C@H]21" .
0

Report Population Mitotic Cells (%) under test system U2OS for "CC(C)(C)c1ccc(S(=O)(=O)Nc2ccc(Cl)cc2C(=O)c2cc[n+]([O-])cc2)cc1" .
0

Report Population Mitotic Cells (%) under test system U2OS for "CCCn1c(=O)c2[nH]c(C3CCCC3)nc2n(CCC)c1=O" .
6

Report Population Mitotic Cells (%) under test system U2OS for "C[C@H]1[C@H]2CC[C@H]3[C@@H]4CC=C5C[C@@H](N(C)C)CC[C@]5(C)[C@H]4CC[C@]23CN1C" .
41

Report Population Mitotic Cells (%) under test system U2OS for "O=C1COc2nccc(-c3ccccc3F)c2CN1Cc1cc(C(F)(F)F)cc(C(F)(F)F)c1" .
22

Report Population Mitotic Cells (%) under test system U2OS for "C[C@@H]1C[C@H]2[C@@H]3CCC4=CC(=O)C=C[C@]4(C)[C@@]3(F)[C@@H](O)C[C@]2(C)[C@@]1(O)C(=O)CO" .
20

Report Population Mitotic Cells (%) under test system U2OS for Cc1ccc(C(C)(O)c2nc3ccccc3s2)c(C)c1 (stereo not drawn) .
0

Report Population Mitotic Cells (%) under test system U2OS for "CN(C)c1ccnc2sc3c(=O)n(N4CCCCCC4)cnc3c12" .
12

Report Population Mitotic Cells (%) under test system U2OS for "CN1CCN(c2nc3cc(C(F)(F)F)ccc3n3cccc23)CC1.O=C(O)/C=C\C(=O)O.O=C(O)/C=C\C(=O)O" .
0

Report Population Mitotic Cells (%) under test system U2OS for COc1ccc2c(c1)C(C(=O)N(Cc1ccc(N(C)C)cc1)c1ccc(C(C)C)cc1)CCC2.Cl (stereo not drawn) .
30

Report Population Mitotic Cells (%) under test system U2OS for "Cc1nc2ccc(Oc3ccc(F)cc3)cc2c(=O)n1C[C@H]1CCCN(C(C)C)C1.Cl" .
40
